Recorded measurements of relative viability, one per entry
- Tested on: NCI-H1975
- Test Description: relative viability (nuclei count vs DMSO), 5 days (fraction); higher = more cells survive
- Settings: first compound 0.01581 µM
Attribute Measured: relative viability

CC1(C)CCC(c2ccc(Cl)cc2)=C(CN2CCN(c3ccc(C(=O)NS(=O)(=O)c4ccc(N[C@H](CCN5CCOCC5)CSc5ccccc5)c(S(=O)(=O)C(F)(F)F)c4)cc3)CC2)C1 [Navitoclax] + CC(=O)c1c(C)c2cnc(Nc3ccc(N4CCNCC4)cn3)nc2n(C2CCCC2)c1=O [Palbociclib] (partner 0.5 µM) : 0.661
CC1(C)CCC(c2ccc(Cl)cc2)=C(CN2CCN(c3ccc(C(=O)NS(=O)(=O)c4ccc(N[C@H](CCN5CCOCC5)CSc5ccccc5)c(S(=O)(=O)C(F)(F)F)c4)cc3)CC2)C1 [Navitoclax] + CC(=O)Nc1cccc(-n2c(=O)n(C3CC3)c(=O)c3c(Nc4ccc(I)cc4F)n(C)c(=O)c(C)c32)c1 [Trametinib] (partner 0.02 µM) : 0.409
CC1(C)CCC(c2ccc(Cl)cc2)=C(CN2CCN(c3ccc(C(=O)NS(=O)(=O)c4ccc(N[C@H](CCN5CCOCC5)CSc5ccccc5)c(S(=O)(=O)C(F)(F)F)c4)cc3)CC2)C1 [Navitoclax] + C[C@]1(O)C[C@@H](c2nc(-c3ccc4ccc(-c5ccccc5)nc4c3)c3c(N)nccn32)C1 [Linsitinib] (partner 1 µM) : 1.14

###

- Test system: NCI-H2405
- Test Description: relative viability (nuclei count vs DMSO), 5 days (fraction); higher = more cells survive
- Settings: first compound 0.01 µM
Recorded measurements of relative viability, one per entry
Attribute Measured: relative viability

NC(=O)Nc1cc(-c2cccc(F)c2)sc1C(=O)N[C@H]1CCCNC1 [AZD7762] + Cc1nc(Nc2ncc(C(=O)Nc3c(C)cccc3Cl)s2)cc(N2CCN(CCO)CC2)n1 [Dasatinib] (partner 0.075 µM) : 0.234
NC(=O)Nc1cc(-c2cccc(F)c2)sc1C(=O)N[C@H]1CCCNC1 [AZD7762] + Cc1nc(NC(=O)N2CCC[C@H]2C(N)=O)sc1-c1ccnc(C(C)(C)C(F)(F)F)c1 [Alpelisib] (partner 2 µM) : 0.808
NC(=O)Nc1cc(-c2cccc(F)c2)sc1C(=O)N[C@H]1CCCNC1 [AZD7762] + COc1cccc2cc(-c3nc([C@H]4CC[C@H](C(=O)O)CC4)n4ncnc(N)c34)[nH]c12 [OSI-027] (partner 0.5 µM) : 0.608
NC(=O)Nc1cc(-c2cccc(F)c2)sc1C(=O)N[C@H]1CCCNC1 [AZD7762] + Nc1ncn([C@H]2C[C@H](O)[C@@H](CO)O2)c(=O)n1 [Decitabine] (partner 2 µM) : 0.806

###

- Test system: NCI-H647
- Test Description: relative viability (nuclei count vs DMSO), 5 days (fraction); higher = more cells survive
- Settings: first compound 0.8 µM
Attribute Measured: relative viability

C=C1C(=O)O[C@@H](CCCCCCCC)[C@@H]1C(=O)O [C-75] + NC(=O)Nc1cc(-c2cccc(F)c2)sc1C(=O)N[C@H]1CCCNC1 [AZD7762] (partner 0.2 µM) : 0.329
Oc1nc(-c2ccc(C(F)(F)F)cc2)nc2c1CSCC2 [XAV939] + CC(C)C[C@H](NC(=O)[C@H](Cc1ccccc1)NC(=O)c1cnccn1)B(O)O [Bortezomib] (partner 0.002 µM) : 0.81
Oc1nc(-c2ccc(C(F)(F)F)cc2)nc2c1CSCC2 [XAV939] + CS(=O)(=O)CCNCc1ccc(-c2ccc3ncnc(Nc4ccc(OCc5cccc(F)c5)c(Cl)c4)c3c2)o1 [Lapatinib] (partner 2 µM) : 0.987
Oc1nc(-c2ccc(C(F)(F)F)cc2)nc2c1CSCC2 [XAV939] + O=C(c1cc(Cc2n[nH]c(=O)c3ccccc23)ccc1F)N1CCN(C(=O)C2CC2)CC1 [Olaparib] (partner 8 µM) : 0.506
Oc1nc(-c2ccc(C(F)(F)F)cc2)nc2c1CSCC2 [XAV939] + CC(=O)c1c(C)c2cnc(Nc3ccc(N4CCNCC4)cn3)nc2n(C2CCCC2)c1=O [Palbociclib] (partner 0.5 µM) : 0.277

###

Recorded measurements of relative viability, one per entry
- Test system: H3255
- Test Description: relative viability (nuclei count vs DMSO), 5 days (fraction); higher = more cells survive
- Settings: first compound 0.05 µM
Attribute Measured: relative viability

CC1(C)CCC(c2ccc(Cl)cc2)=C(CN2CCN(c3ccc(C(=O)NS(=O)(=O)c4ccc(N[C@H](CCN5CCOCC5)CSc5ccccc5)c(S(=O)(=O)C(F)(F)F)c4)cc3)CC2)C1 [Navitoclax] + NC(=O)Nc1cc(-c2cccc(F)c2)sc1C(=O)N[C@H]1CCCNC1 [AZD7762] (partner 0.2 µM) : 0.851
CC1(C)CCC(c2ccc(Cl)cc2)=C(CN2CCN(c3ccc(C(=O)NS(=O)(=O)c4ccc(N[C@H](CCN5CCOCC5)CSc5ccccc5)c(S(=O)(=O)C(F)(F)F)c4)cc3)CC2)C1 [Navitoclax] + Nc1ncn([C@H]2C[C@H](O)[C@@H](CO)O2)c(=O)n1 [Decitabine] (partner 2 µM) : 0.567
CC1(C)CCC(c2ccc(Cl)cc2)=C(CN2CCN(c3ccc(C(=O)NS(=O)(=O)c4ccc(N[C@H](CCN5CCOCC5)CSc5ccccc5)c(S(=O)(=O)C(F)(F)F)c4)cc3)CC2)C1 [Navitoclax] + Cc1cc(Nc2cc(N3CCN(C)CC3)nc(Sc3ccc(NC(=O)C4CC4)cc3)n2)n[nH]1 [Tozasertib] (partner 0.1 µM) : 0.673

###

- Test system: NCI-H1666
- Test Description: relative viability (nuclei count vs DMSO), 5 days (fraction); higher = more cells survive
- Settings: first compound 0.4 µM
Consider the cut-off 0.8. If the recorded relative viability is strictly smaller, the label is met; if not, the label is not met.

O=C(O)c1ccc(-c2c[nH]c3ncc(-c4ccccc4)cc23)cc1C1CCCC1 + Cc1nc(Nc2ncc(C(=O)Nc3c(C)cccc3Cl)s2)cc(N2CCN(CCO)CC2)n1 [Dasatinib] (partner 0.075 µM) : not met
O=C(O)c1ccc(-c2c[nH]c3ncc(-c4ccccc4)cc23)cc1C1CCCC1 + Nc1ncn([C@H]2C[C@H](O)[C@@H](CO)O2)c(=O)n1 [Decitabine] (partner 2 µM) : met
O=C(O)c1ccc(-c2c[nH]c3ncc(-c4ccccc4)cc23)cc1C1CCCC1 + CC(=O)Nc1cccc(-n2c(=O)n(C3CC3)c(=O)c3c(Nc4ccc(I)cc4F)n(C)c(=O)c(C)c32)c1 [Trametinib] (partner 0.02 µM) : not met
O=C(O)c1ccc(-c2c[nH]c3ncc(-c4ccccc4)cc23)cc1C1CCCC1 + CCNC(=O)c1noc(-c2cc(C(C)C)c(O)cc2O)c1-c1ccc(CN2CCOCC2)cc1 [Luminespib] (partner 0.01 µM) : not met
O=C(O)c1ccc(-c2c[nH]c3ncc(-c4ccccc4)cc23)cc1C1CCCC1 + O=C(c1cc(Cc2n[nH]c(=O)c3ccccc23)ccc1F)N1CCN(C(=O)C2CC2)CC1 [Olaparib] (partner 8 µM) : met
O=C(O)c1ccc(-c2c[nH]c3ncc(-c4ccccc4)cc23)cc1C1CCCC1 + Cc1nc(NC(=O)N2CCC[C@H]2C(N)=O)sc1-c1ccnc(C(C)(C)C(F)(F)F)c1 [Alpelisib] (partner 2 µM) : not met
O=C(O)c1ccc(-c2c[nH]c3ncc(-c4ccccc4)cc23)cc1C1CCCC1 + CC(=O)c1c(C)c2cnc(Nc3ccc(N4CCNCC4)cn3)nc2n(C2CCCC2)c1=O [Palbociclib] (partner 0.5 µM) : met
O=C(O)c1ccc(-c2c[nH]c3ncc(-c4ccccc4)cc23)cc1C1CCCC1 + COc1cccc2cc(-c3nc([C@H]4CC[C@H](C(=O)O)CC4)n4ncnc(N)c34)[nH]c12 [OSI-027] (partner 0.5 µM) : not met
O=C(O)c1ccc(-c2c[nH]c3ncc(-c4ccccc4)cc23)cc1C1CCCC1 + Cc1cc(Nc2cc(N3CCN(C)CC3)nc(Sc3ccc(NC(=O)C4CC4)cc3)n2)n[nH]1 [Tozasertib] (partner 0.1 µM) : met

###

Recorded measurements of relative viability, one per entry
- System: NCI-H1666
- Test Description: relative viability (nuclei count vs DMSO), 5 days (fraction); higher = more cells survive
- Settings: first compound 0.08 µM
Attribute Measured: relative viability

Oc1nc(-c2ccc(C(F)(F)F)cc2)nc2c1CSCC2 [XAV939] + O=C(c1cc(Cc2n[nH]c(=O)c3ccccc23)ccc1F)N1CCN(C(=O)C2CC2)CC1 [Olaparib] (partner 8 µM) : 0.748
Oc1nc(-c2ccc(C(F)(F)F)cc2)nc2c1CSCC2 [XAV939] + CS(=O)(=O)CCNCc1ccc(-c2ccc3ncnc(Nc4ccc(OCc5cccc(F)c5)c(Cl)c4)c3c2)o1 [Lapatinib] (partner 2 µM) : 0.571
C=C1C(=O)O[C@@H](CCCCCCCC)[C@@H]1C(=O)O [C-75] + COc1cc2c(Oc3ccc(NC(=O)C4(C(=O)Nc5ccc(F)cc5)CC4)cc3F)ccnc2cc1OCCCN1CCOCC1 [Foretinib] (partner 0.25 µM) : 0.991
C=C1C(=O)O[C@@H](CCCCCCCC)[C@@H]1C(=O)O [C-75] + Cc1nc(NC(=O)N2CCC[C@H]2C(N)=O)sc1-c1ccnc(C(C)(C)C(F)(F)F)c1 [Alpelisib] (partner 2 µM) : 0.908
Oc1nc(-c2ccc(C(F)(F)F)cc2)nc2c1CSCC2 [XAV939] + Cc1nc(Nc2ncc(C(=O)Nc3c(C)cccc3Cl)s2)cc(N2CCN(CCO)CC2)n1 [Dasatinib] (partner 0.075 µM) : 0.921
C=C1C(=O)O[C@@H](CCCCCCCC)[C@@H]1C(=O)O [C-75] + Nc1nc2[nH]cc(CCc3ccc(C(=O)N[C@@H](CCC(=O)O)C(=O)O)cc3)c2c(=O)[nH]1 [Pemetrexed] (partner 0.2 µM) : 0.882
Oc1nc(-c2ccc(C(F)(F)F)cc2)nc2c1CSCC2 [XAV939] + CCNC(=O)c1noc(-c2cc(C(C)C)c(O)cc2O)c1-c1ccc(CN2CCOCC2)cc1 [Luminespib] (partner 0.01 µM) : 1.07
